Ref: PubChem BioAssay AID1508625

- ASSAY_PROTOCOL: small molecules boosting NK-mediated OVCAR3 lysis – imaging, primary NK cells, calcein-AM imaging, primary screen (AID 1508625);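 note: compound given to NK cells 16 h before adding targets at 1.5 to 1 ratio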
- COND: OVCAR3 lysis by primary NK cells, at 5 µM
READOUT_KIND: corrected activity, negative = more killing (%)
Please respond with the number in % and leave the unit unwritten.

These solved cases illustrate the format of a correct answer.
>>> measurement("COC(=O)c1cc(Cl)c(NC(=O)c2cc3ccccc3oc2=O)cc1OC")
-1.77
>>> measurement("O=C(c1ccc([N+](=O)[O-])cc1)N1N=C(C2CC2)CC1(O)C(F)F (stereo not given)")
-2.43
>>> measurement("O=C(c1cccc(F)c1)N1CCCN(C(=O)c2cccc(F)c2)CC1")
-4.12

# input for lookup
Give me measured corrected activity, negative = more killing, please, for this molecule: O=C(Nc1ccccc1-c1nc2ccccc2[nH]1)c1ccc(S(=O)(=O)N2CCCC2)cc1
0.864

====

- ASSAY_PROTOCOL: small molecules boosting NK-mediated OVCAR3 lysis – imaging, primary NK cells, calcein-AM imaging, primary screen (AID 1508625);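 note: compound given to NK cells 16 h before adding targets at 1.5 to 1 ratio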
- COND: OVCAR3 lysis by primary NK cells, at 5 µM
READOUT_KIND: corrected activity, negative = more killing (%)
Please respond with the number in % and leave the unit unwritten.

These solved cases illustrate the format of a correct answer.
>>> measurement("O=C(Cn1cnc2ccccc2c1=O)NCCC(=O)NC1CCCCCC1")
-3.69
>>> measurement("CC1CCC2C(=O)N(c3ccc(N4CC5(C)CC4CC(C)(C)C5)c([N+](=O)[O-])c3)C(=O)C2C1 (stereo not drawn)")
-1.82

Give me measured corrected activity, negative = more killing, please, for this molecule: COc1ccc(Cl)cc1NC(=O)c1cnn2c(C(F)(F)F)cc(-c3ccc(C)cc3)nc12
-0.972

Give me measured corrected activity, negative = more killing, please, for this molecule: O=C(CSCc1ccccc1F)N1CCc2ccccc21
-9.83

Give me measured corrected activity, negative = more killing, please, for this molecule: Cc1ccc(NCc2cccnc2)cc1
-1.25

Give me measured corrected activity, negative = more killing, please, for this molecule: COc1ccc(C)cc1NC(=O)c1cc(S(=O)(=O)NC2CCCCC2C)ccc1F (stereo not drawn)
-0.89

Give me measured corrected activity, negative = more killing, please, for this molecule: Cc1ccc(OCCN2CCNCC2)c(Br)c1
-2.45

Give me measured corrected activity, negative = more killing, please, for this molecule: OCCNCCCOc1ccccc1F
-1.78

Give me measured corrected activity, negative = more killing, please, for this molecule: COc1ccc(-c2cc(C(=O)NN=Cc3ccncc3)[nH]n2)cc1
2.36

Give me measured corrected activity, negative = more killing, please, for this molecule: COC(=O)c1cc(C=O)c(O)c(C=O)c1
-2.3

Give me measured corrected activity, negative = more killing, please, for this molecule: COc1ccc2ccccc2c1C=Nc1cc(C)ccc1C
-0.753

Give me measured corrected activity, negative = more killing, please, for this molecule: Cc1ccc(-c2coc3c(C)c4oc(=O)c5c(c4cc23)CCC5)cc1
-5.02

====

- ASSAY_PROTOCOL: small molecules boosting NK-mediated OVCAR3 lysis – imaging, primary NK cells, calcein-AM imaging, primary screen (AID 1508625);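 note: compound given to NK cells 16 h before adding targets at 1.5 to 1 ratio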;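 for Z-score: more negative robust z means stronger NK killing of tumor cells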
- COND: OVCAR3 lysis by primary NK cells, at 5 µM; measured here: robust Z-score, single-point normalisation
READOUT_KIND: z-score
Lab note: jot the number down without any unit.

These solved cases illustrate the format of a correct answer.
>>> measurement("COc1cc(OC)c(CNc2ccc(F)cc2C)cc1Br")
-2.24
>>> measurement("CCOc1cc(C(=S)N2CCOCC2)ccc1OC(=O)Cc1ccccc1")
-2.32

Give me measured z-score, please, for this molecule: O=C(Nc1nc(-c2ccc([N+](=O)[O-])cc2)cs1)c1ccccc1F
-0.252

Give me measured z-score, please, for this molecule: O=C(c1oc(=O)c2ccccc2c1-c1ccccc1)N(CCc1ccccc1)Cc1ccccc1
-1.24

Give me measured z-score, please, for this molecule: O=C1OC(c2ccccc2Cl)=NC1=Cc1cccs1
-0.219

Give me measured z-score, please, for this molecule: O=C(O)C1C2C=CC(O2)C1C(=O)Nc1ccccc1C(F)(F)F (stereo unspecified)
-1.56
